- ASSAY_SUMMARY: Measurement of solubility in propylene carbonate
- Format: physicochemical
- STATED_CONDITIONS: organic solvent or mixture
Please provide measured solubility for the entries that follow.

COCCOCc1c(-c2c(OC)cccc2OC(C)C)sc(-c2c(OC)cccc2OC(C)C)c1COCCOC [A-1]    ≥ 150 mM

// next entry
### Prompt Quick one: solubility for Cc1c(-c2ccccc2)sc(-c2ccccc2)c1C [Ref-1] ?
### Response < 6 mM
